Cited source: ChEMBL document CHEMBL1961873

biological target: Mitogen-activated protein kinase 1 (Homo sapiens); conditions: at 1 µM;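 note: values are mean inhibition, from the GSK PKIS collection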
measurementName: inhibition (%)

> print(dat)
                                    molecule  reportedvalue
 1          N#Cc1cccc(Nc2ncc(-c3ccccc3)o2)c1           3.01
 2  CS(=O)(=O)Nc1ccc(-c2cc(-c3ccccc3)cc(C(N)=O)c2N)cc1           2.91
 3  COc1c(C(N)=O)cc(-c2ccc(Cl)cc2)cc1-c1ccc(S(N)(=O)=O)cc1           5.86
 4  CC1=C(C(=O)Nc2ccc3[nH]ncc3c2)C(c2ccc(F)cc2)N=C(c2ccc(C(F)(F)F)nc2)N1 (configuration not stated)           3.17
 5     COc1cccc(Nc2nccc(-c3cnn4ncccc34)n2)c1           26.5
 6  COC(=O)Nc1nc2ccc(Oc3ccc(NC(=O)Nc4cc(C(F)(F)F)ccc4F)cc3)cc2s1            0.7
 7  O=C(O[C@H]1CN[C@H](C#Cc2cc3ncnc(Nc4ccc5c(cnn5Cc5ccccc5)c4)c3s2)C1)N1CCOCC1          -0.13
 8        FC(F)(F)CNc1nccc(-c2cnn3ncccc23)n1           5.24
 9  Fc1cccc(COc2ccc(Nc3ncncc3C#Cc3ccccc3)cc2Cl)c1           4.95
10  CC1=C(C(=O)Nc2ccc3[nH]nc(C)c3c2)C(c2ccc(C(F)(F)F)cc2)CC(=O)N1 (configuration not stated)           35.1
11    c1cnn2ncc(-c3ccnc(NCCCN4CCOCC4)n3)c2c1           4.35
12  NS(=O)(=O)c1cccc(N/C=C2\C(=O)Nc3ccccc32)c1           4.54
13  OCCCNc1nccc(-c2c(-c3ccc(F)cc3)nn3cc(C(F)(F)F)ccc23)n1           7.07
14  CCCNc1cccc(-n2ncc3c(N/N=C/c4ccncc4)ncnc32)c1           1.54
15  COc1ccc2ncn(-c3cc(O[C@H](C)c4ccccc4C(F)(F)F)c(C(N)=O)s3)c2c1          -0.49
16  CC1(C)CC(n2cnc(-c3ccc(F)cc3)c2-c2ccnc(N)n2)CC(C)(C)N1          -0.08
17        O=C1Nc2ccccc2/C1=C1\CCc2cc(O)ccc21           6.56
18  CN1CCC(n2cnc(-c3ccc(F)cc3)c2-c2ccnc(NCCO)n2)CC1           6.12
19  CNC(=O)c1ncccc1Nc1nc(Nc2cc3c(cc2OC)CCCN3C(=O)CN(C)C)nc2[nH]ccc12           6.21
20  Cc1nnc(-c2cccc(-c3ccc(C(=O)NCC4CC4)cc3)c2)o1           5.62
21  COC(=O)Nc1nc2cc(Oc3ccc(NC(=O)Nc4ccccc4)cc3)ccc2[nH]1           2.22
22  Cc1c2ccc(N(C)c3ccnc(Nc4cccc(S(N)(=O)=O)c4)n3)cc2nn1C           5.77
23      Cc1cc(O)cc(C)c1/C=C/c1cncc(C(N)=O)c1           2.53
24  NC(=O)c1ccc2c(-c3ccnc(NCCCO)n3)c(-c3ccc(F)cc3)nn2c1           14.9
25  CS(=O)(=O)CCNCc1ccc(-c2ccc3ncnc(Nc4ccc(OCc5ccccc5)cc4)c3c2)o1           3.85
26  Cc1cc(O)cc(C)c1/C=C/c1cncc(C(=O)OC(C)(C)C)c1           4.61
27  COc1ccc(-c2nn3ncccc3c2-c2ccnc(Nc3ccc(F)c(F)c3)n2)cc1           5.09
